Reported pIC50 values are given for each entry in this list.
system: Neisseria gonorrhoeae; assay: EC50 determination: plate-based broth growth assay (absorbance at 600 nm) of Neisseria gonorrhoeae; type: cell-based; conditions: absorbance 600 nm after 20 hours at 37° C./5% CO2, read-out: IC50 (Inhibitory concentration) against Neisseria gonorrhoeae
pIC50: −log10 of the molar value. Where a name gives a salt, the structure may show the parent alone.
Assay readout: pIC50

> print(dat)
                                    molecule  assay.readout  reported
 1        Cc1nnc(Nc2nc3ccc(C(F)(F)F)cc3o2)o1          pIC50    ≥ 7.00
 2  CN1CCc2nc(Nc3nc4cc(C(F)(F)F)ccc4o3)oc2C1          pIC50    ≥ 6.00
 3  O=C(c1csc(Nc2nc3cc(C(F)(F)F)ccc3o2)n1)N1CCNCC1 [Example 95, hydrochloride]          pIC50    ≥ 6.00
 4        Cc1nnc(Nc2nc3c(C)cc(Cl)cc3o2)[nH]1          pIC50    ≥ 6.00
 5              COCCOc1ccc2nc(Nc3nnco3)oc2c1          pIC50    ≥ 6.00
 6                 Clc1cnc2nc(Nc3nnco3)oc2c1          pIC50    ≥ 5.00
 7            N#Cc1nnc(Nc2nc3ccc(Cl)cc3o2)o1          pIC50    ≥ 7.00
 8                Cc1cc2oc(Nc3nnco3)nc2cc1Cl          pIC50    ≥ 7.00
 9     Cc1ccc2oc(Nc3nc(C(=O)NC4CC4)cs3)nc2c1          pIC50    ≥ 6.00
10     Cc1nnc(Nc2nc3cc(C(F)(F)F)ccc3o2)[nH]1          pIC50    ≥ 6.00
